Biological target: rat VMAT2-His (Rattus norvegicus)
Construct: The ORF of rat VMAT2 was subcloned into a pFastBac vector; His; made in house; host or cells: Sf9 insect cells (baculovirus)
Sequence (Q01827 whole entry): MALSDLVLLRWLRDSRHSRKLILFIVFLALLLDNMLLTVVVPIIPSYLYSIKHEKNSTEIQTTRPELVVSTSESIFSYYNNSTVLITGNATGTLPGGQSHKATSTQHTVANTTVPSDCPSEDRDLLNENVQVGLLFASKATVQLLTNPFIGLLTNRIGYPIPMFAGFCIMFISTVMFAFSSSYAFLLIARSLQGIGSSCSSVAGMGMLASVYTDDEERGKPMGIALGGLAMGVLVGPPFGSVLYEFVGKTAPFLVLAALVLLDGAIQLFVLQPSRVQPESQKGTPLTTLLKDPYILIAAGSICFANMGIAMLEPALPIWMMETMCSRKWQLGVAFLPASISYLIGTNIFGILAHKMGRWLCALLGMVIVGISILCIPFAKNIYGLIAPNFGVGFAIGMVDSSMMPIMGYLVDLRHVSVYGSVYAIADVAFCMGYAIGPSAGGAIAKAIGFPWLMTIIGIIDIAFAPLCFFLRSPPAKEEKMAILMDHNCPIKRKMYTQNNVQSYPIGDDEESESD
Test: Differential scanning fluorimetry (DSF) with CPM dye: change of melting temperature of purified VMAT2
Type: binding
Details: Table S2 dose response, compound 30 µM; read-out: ΔTm
Where a name gives a salt, the structure may show the parent alone.
Threshold-based label: ΔTm at 30 µM under 0.3 °C gives yes (1), ΔTm at 30 µM not under 0.3 °C gives no (0).

# molecule, class-assignment
data = [
    ("Clc1ccc(Cn2c(CN3CCCC3)nc3ccccc32)cc1 [Clemizole hydrochloride]", "no (0)"),
    ("C#CCN(C)[C@H](C)Cc1ccccc1 [Selegiline hydrochloride]", "yes (1)"),
    ("CC(C)n1c(/C=C/C(O)CC(O)CC(=O)O)c(-c2ccc(F)cc2)c2ccccc21 (stereo not drawn) [Fluvastatin, Fluvastatin sodium salt]", "no (0)"),
    ("COc1cc2c(cc1OC)C1CC(=O)C(CC(C)C)CN1CC2 (stereo not drawn) [Tetrabenazine]", "no (0)"),
    ("C[C@H](CCC(=O)O)[C@H]1CC[C@H]2[C@@H]3C(=O)C[C@@H]4CC(=O)CC[C@]4(C)[C@H]3CC(=O)[C@]12C [Dehydrocholic acid]", "no (0)"),
    ("C[C@H](CCC(=O)O)[C@H]1CC[C@H]2[C@@H]3[C@H](O)C[C@@H]4C[C@H](O)CC[C@]4(C)[C@H]3CC[C@]12C [Chenodiol]", "no (0)"),
    ("CC(C)NCC(O)COc1ccc(CCOCC2CC2)cc1 (stereo not drawn) [Betaxolol, Betaxolol hydrochloride]", "yes (1)"),
    ("CC(C)COCC(CN(Cc1ccccc1)c1ccccc1)N1CCCC1 (stereo not drawn) [Bepridil hydrochloride]", "yes (1)"),
    ("CC(NCCC(c1ccccc1)c1ccccc1)c1ccccc1 (stereo not drawn) [Fendiline hydrochloride]", "yes (1)"),
    ("OCc1cc(C(O)CNCCCCCCOCCCCc2ccccc2)ccc1O (stereo not drawn) [Salmeterol]", "no (0)"),
    ("CN[C@@H]1C[C@@H](c2ccc(Cl)c(Cl)c2)c2ccccc21 [Indatraline hydrochloride]", "yes (1)"),
    ("CCCc1nn(C)c2c(=O)[nH]c(-c3cc(S(=O)(=O)N4CCN(C)CC4)ccc3OCC)nc12 [Sildenafil]", "yes (1)"),
    ("OC(c1cc(C(F)(F)F)nc2c(C(F)(F)F)cccc12)C1CCCCN1 (stereo not drawn) [Mefloquine hydrochloride]", "yes (1)"),
    ("CC(CCc1ccccc1)NCC(O)c1ccc(O)c(C(N)=O)c1 (stereo not drawn) [Labetalol hydrochloride]", "no (0)"),
    ("CCCNCC(O)COc1ccccc1C(=O)CCc1ccccc1 (stereo not drawn) [Propafenone, Propafenone hydrochloride]", "no (0)"),
    ("O=C1Cc2cc(CCN3CCN(c4nsc5ccccc45)CC3)c(Cl)cc2N1 [Ziprasidone, Ziprasidone Hydrochloride]", "no (0)"),
    ("C=CCc1ccccc1OCC(O)CNC(C)C (stereo not drawn) [Alprenolol hydrochloride]", "no (0)"),
    ("CC(C)(C)c1ccc(C(O)CCCN2CCC(C(O)(c3ccccc3)c3ccccc3)CC2)cc1 (stereo not drawn) [Terfenadine]", "yes (1)"),
    ("CC(C)(C)NC(=O)[C@@H]1C[C@@H]2CCCC[C@@H]2CN1C[C@@H](O)[C@H](Cc1ccccc1)NC(=O)[C@H](CC(N)=O)NC(=O)c1ccc2ccccc2n1 [Saquinavir mesylate]", "yes (1)"),
    ("Cc1cccc(C)c1NC(=O)CN1CCN(CCCC(c2ccc(F)cc2)c2ccc(F)cc2)CC1 [Lidoflazine]", "yes (1)"),
    ("COc1ccc2[nH]c([S+]([O-])Cc3ncc(C)c(OC)c3C)nc2n1 (stereo not drawn) [Tenatoprazole]", "no (0)"),
    ("Fc1ccc(C(OCCN2CCN(CCCc3ccccc3)CC2)c2ccc(F)cc2)cc1 [GBR 12909 dihydrochloride]", "yes (1)"),
    ("CCCCC(CC)CN1CN(CC(CC)CCCC)CC(C)(N)C1 (stereo not drawn) [Hexetidine]", "yes (1)"),
    ("C1CCC(C(CC2CCCCN2)C2CCCCC2)CC1 (stereo not drawn) [Perhexiline maleate]", "yes (1)"),
    ("CCCC(=O)Nc1ccc(OCC(O)CNC(C)C)c(C(C)=O)c1 (stereo not drawn) [Acebutolol, Acebutolol hydrochloride]", "no (0)"),
    ("OC(CCN1CCCCC1)(c1ccccc1)C1CC2C=CC1C2 (stereo not drawn) [Biperiden, Biperiden hydrochloride]", "no (0)"),
    ("O=C(c1ccc(F)cc1)C1CCN(CCn2c(=O)[nH]c3ccccc3c2=O)CC1 [Ketanserin tartrate hydrate]", "no (0)"),
    ("CN1CCC(=C2c3ccccc3Sc3ccccc32)CC1 [Pimethixene maleate]", "yes (1)"),
    ("CN1CCCC(n2nc(Cc3ccc(Cl)cc3)c3ccccc3c2=O)CC1 (stereo not drawn) [Azelastine HCl]", "no (0)"),
    ("COc1ccc(CN2CCN(C(c3ccc(F)cc3)c3ccc(F)cc3)CC2)c(OC)c1OC [Lomerizine, Lomerizine hydrochloride]", "yes (1)"),
]
